Entries annotated with measured IC50
Assayed target: Ghrelin receptor (Homo sapiens)
Assay method text: Receptor Selection and Amplification Technology (R-SAT) assay
Assay type: cell-based
Parameters: expressed in transfected cells; host or cells: NIH3T3
Run parameters: negative logarithm of ligand concentration causing 50% inhibition of constitutive receptor response; transfected NIH3T3 cells; '—' not defined (nd used separately); read-out: RSAT pIC50 (converted)
Numeric answer only, unit nM assumed.

COc1cccc2c(C#N)cn(CCCN3C4CCC3CC(CCc3ccc(Cl)cc3)C4)c12 (stereo not drawn) | 39.8
CC(=O)c1cn(CCCN2C3CCC2CC(OCC2CC2)C3)c2cc(Br)ccc12 (stereo not drawn) | 501

Okay, next one:
Quick one: IC50 for COc1ccccc1C1CCN(CCCn2cc(C(C)=O)c3ccccc32)CC1 [drawing 576] ?
501

====

Assayed target: Ghrelin receptor (Homo sapiens, UniProt Q92847)
Sequence (Q92847 whole entry): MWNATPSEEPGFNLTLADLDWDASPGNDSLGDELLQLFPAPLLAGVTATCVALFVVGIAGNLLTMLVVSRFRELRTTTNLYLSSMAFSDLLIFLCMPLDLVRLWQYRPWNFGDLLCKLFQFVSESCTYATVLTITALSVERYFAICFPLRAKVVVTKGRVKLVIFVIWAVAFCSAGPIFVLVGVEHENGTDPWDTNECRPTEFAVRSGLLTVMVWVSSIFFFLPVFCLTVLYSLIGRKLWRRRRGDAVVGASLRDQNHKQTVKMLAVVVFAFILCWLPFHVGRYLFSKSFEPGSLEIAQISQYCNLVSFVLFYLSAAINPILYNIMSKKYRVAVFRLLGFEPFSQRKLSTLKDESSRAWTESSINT
Assay method text: Receptor Selection and Amplification Technology (R-SAT) assay
Format: cell-based
Parameters: expressed in transfected cells; host or cells: NIH3T3
Run parameters: negative logarithm of ligand concentration causing 50% inhibition of constitutive receptor response; transfected NIH3T3 cells; '—' not defined (nd used separately); read-out: RSAT pIC50 (converted)
Kindly apply the following: Satisfied if IC50 is less than 200 nM, Not satisfied in every other case.

These solved cases illustrate the format of a correct answer.
CC(=O)c1cn(CCCN2CCC(c3nc4ccccc4s3)CC2)c2c(Br)cccc12 | Satisfied
COc1cccc2c(C#N)cn(CCCN3C4CCC3CC(Oc3ccccc3Cl)C4)c12 (stereo not shown) | Satisfied
CCCOC1CCN(CC(C)Cn2c(=O)sc3ccccc32)CC1 (stereo not shown) | Not satisfied

Hello, I'm reviewing records and need to know if IC50 of COc1cccc2c(C(C)=O)cn(CCCN3CCC(Oc4ccc(F)cc4)CC3)c12 [drawing 241] is below 200 nM. Could you check?
Satisfied

For COc1cccc2c(C(C)=O)cn(CCCN3CCN(c4ccc(C(F)(F)F)cc4[N+](=O)[O-])CC3)c12 , is the recorded IC50 below the cut-off of 200 nM?
Satisfied

Say whether its IC50 is strictly beneath 200 nM. Entry: COc1ccccc1C1CCN(CCCn2cc(C(=O)CC(C)C)c3ccccc32)CC1
Not satisfied

Threshold test, IC50 < 200 nM: COc1cccc2c(C(C)=O)cn(CCCN3CCC(N(C)C(C)=O)C3)c12 (stereo not shown)
Not satisfied

Is the reported IC50 for COc1cccc2c(C(=O)NCC(C)C)cn(CCCN3CCN(CCOc4ccc(Cl)cc4)CC3)c12 strictly below 200 nM?
Satisfied

Is IC50 of CCc1cccc2c(C(C)=O)cn(CCCN3CCCN(CCc4ccccc4)CC3)c12 strictly below 200 nM?
Satisfied

In plain terms, does CC(=O)c1cn(CCCN2CCCN(Cc3ccccc3Cl)CC2)c2ncccc12 come in under 200 nM for IC50?
Satisfied

Given CCCCC1CCN(CCCn2cc(CCC(C)=O)c3ccccc32)CC1 , is recorded IC50 strictly lower than 200 nM?
Not satisfied

Does the reported IC50 of the following compound sit strictly below 200 nM? CC(=O)c1cn(CCCN2CCC(c3nc(-c4cccnc4)no3)CC2)c2c(Cl)cccc12
Not satisfied

Please check: IC50 for COc1cccc2c(C(C)=O)cn(CCCN3CCN(c4ncccc4C(F)(F)F)CC3)c12 , strictly under 200 nM or not?
Satisfied

A record lists COc1ccc(C(=O)OC2C[C@H]3CC[C@@H](C2)N3CCCn2cc(C(C)=O)c3cccc(OC)c32)cc1OC (stereo partly shown) . Is its IC50 below 200 nM?
Satisfied

Would you kindly verify if IC50 of CCOC(=O)C1CCN(CCCn2cc(C(=O)CC)c3ccccc32)CC1 is strictly less than 200 nM?
Not satisfied

Field: below-cutoff. Rule: recorded IC50 strictly less than 200 nM. Subject: CC(=O)c1cn(CCCN2CCC(Oc3ccc(Cl)cc3)CC2)c2c(Cl)cccc12
Not satisfied
